test.name: In vitro microsomal stability, human liver microsomes
Type: in vitro ADME
run.conditions: human, human liver microsomes, pH 7.4; read-out: T1/2 @ hLM
measurement.label: half-life at 1 μM (min)

As a guide, the following entries are already answered.
>  <compound>
CC(c1ccc(C(F)(F)F)cc1C(F)(F)F)n1cc(NC(=O)c2cc(-c3ccco3)on2)cn1 (single isomer, unassigned) [“Enantiomer A” of Example S6]

>  <uom>
min

>  <half-life at 1 μM>
24

$$$$
>  <compound>
O=C(Nc1cnn(Cc2ccc(C(F)(F)F)cc2C(F)(F)F)c1)c1cc(-c2cccs2)on1

>  <uom>
min

>  <half-life at 1 μM>
32.1

$$$$
>  <compound>
CCC(c1ccc(C(F)(F)F)cc1C(F)(F)F)n1cc(NC(=O)c2cc(-c3ccccn3)on2)cn1 (stereo not drawn)

>  <uom>
min

>  <half-life at 1 μM>
67.7

$$$$
>  <compound>
CC(c1ccc(C(F)(F)F)cc1C(F)(F)F)n1cc(NC(=O)c2cc(-c3ccco3)on2)cn1 (stereo not drawn) [Compound 12]

>  <uom>
min

>  <half-life at 1 μM>
29.9

$$$$
>  <compound>
C[C@H](c1ccc(C(F)(F)F)cc1C(F)(F)F)n1cc(NC(=O)c2cc(-c3ncccn3)on2)cn1

>  <uom>
min

>  <half-life at 1 μM>
36

$$$$

1. Cc1nn([C@@H](C)c2ccc(C(F)(F)F)cc2C(F)(F)F)cc1NC(=O)c1cc(-c2ccccn2)on1
2. O=C(Nc1cnn(Cc2ccc(C(F)(F)F)cc2C(F)(F)F)c1)c1cc(-c2ncccn2)on1
3. Cc1ccc(-c2cc(C(=O)Nc3cnn(Cc4ccc(C(F)(F)F)cc4C(F)(F)F)c3)no2)o1
Rank the 3 compounds: largest half-life at 1 μM first, smallest last. The response must list the labels following the requested ordering.
2, 1, 3
(2: 63.2 min, 1: 38.2 min, 3: 6.5 min)

P. C[C@H](c1ccc(F)cc1C(F)(F)F)n1cc(NC(=O)c2cc(-c3ccccn3)on2)cn1
Q. Cc1c(NC(=O)c2cc(-c3ccccn3)on2)cnn1[C@H](C)c1ccc(C(F)(F)F)cc1C(F)(F)F
Quick one: lower half-life at 1 μM, P or Q ? The response must carry the label of the picked entry.
P

###

test.name: In vitro microsomal stability, mouse liver microsomes
Assay type: in vitro ADME
run.conditions: remaining fraction after 30 min; 1 μM compound, 0.5 mg/mL mouse liver microsomes, 1 mM NADPH
measurement.label: Rem. @ mLM (%)

>  <smi>
O=C(Nc1cnn(Cc2ccc(C(F)(F)F)cc2C(F)(F)F)c1)c1cc(-c2cnccn2)on1

>  <Rem. @ mLM (%)>
86.8

$$$$
>  <smi>
Cc1c(NC(=O)c2cc(-c3ccco3)on2)cnn1Cc1ccc(C(F)(F)F)cc1C(F)(F)F

>  <Rem. @ mLM (%)>
51.1

$$$$
>  <smi>
C[C@H](c1ccc(C(F)(F)F)cc1C(F)(F)F)n1cc(NC(=O)c2cn(-c3ccccn3)nn2)cn1

>  <Rem. @ mLM (%)>
62.5

$$$$

###

Measured Vz of individual entries
run.conditions: Balb/c, mouse, in vivo, po, 10 mg/kg
Give the quantity in L/kg, number only.

A selection of reference data follows.
>  <smi>
C[C@H](c1ccc(C(F)(F)F)cc1C(F)(F)F)n1cc(NC(=O)c2nnc(-c3ccccn3)s2)cn1

>  <uom>
L/kg

>  <Vz>
4.43

$$$$
>  <smi>
C[C@H](c1ccc(C(F)(F)F)cc1C(F)(F)F)n1cc(NC(=O)c2cc(-c3cnccn3)on2)cn1

>  <uom>
L/kg

>  <Vz>
0.831

$$$$
>  <smi>
O=C(Nc1cnn(Cc2ccc(C(F)(F)F)cc2C(F)(F)F)c1)c1cc(-c2cnccn2)on1

>  <uom>
L/kg

>  <Vz>
10.5

$$$$
>  <smi>
C[C@H](c1ccc(C(F)(F)F)cc1C(F)(F)F)n1cc(NC(=O)c2cc(-c3ccccn3)no2)cn1

>  <uom>
L/kg

>  <Vz>
1.45

$$$$

Could you now look at the following compound, please?
Sure, the documented Vz for O=C(Nc1cnn(Cc2ccc(C(F)(F)F)cc2C(F)(F)F)c1)c1cc(-c2ccccn2)on1 is 8.74

###

test.name: in vivo
run.conditions: Balb/c, mouse, po, 10 mg/kg
measurement.label: AUC(0-t) (ng·h/mL)
Answer format: numeric, ng·h/mL implied, no suffix.

Some compounds with known AUC(0-t) results, for comparison:
>  <compound>
O=C(Nc1cnn(Cc2ccc(C(F)(F)F)cc2C(F)(F)F)c1)c1cc(-c2ccccn2)on1

>  <AUC(0-t), ng·h/mL>
9780

$$$$
>  <compound>
CC(c1ccc(C(F)(F)F)cc1C(F)(F)F)n1cc(NC(=O)c2cc(-c3ccccn3)on2)cn1 (single isomer, unassigned) [“Enantiomer A” of Example S5]

>  <AUC(0-t), ng·h/mL>
18500

$$$$

Reported AUC(0-t) for C[C@H](c1ccc(C(F)(F)F)cc1C(F)(F)F)n1cc(NC(=O)c2cc(-c3ccccn3)no2)cn1 was 44100

Lookup result for CC(c1ccc(C(F)(F)F)cc1C(F)(F)F)n1cc(NC(=O)c2cc(-c3ccco3)on2)cn1 (single isomer, unassigned) [“Enantiomer A” of Example S6] ; measured AUC(0-t): 615

For record C[C@H](c1ccc(C(F)(F)F)cc1C(F)(F)F)n1cc(NC(=O)c2nnc(-c3ccccn3)s2)cn1 the listed AUC(0-t) is 38800

###

measurement.target: CYP2C8 (Homo sapiens (Human), UniProt P10632)
Sequence (P10632 whole entry): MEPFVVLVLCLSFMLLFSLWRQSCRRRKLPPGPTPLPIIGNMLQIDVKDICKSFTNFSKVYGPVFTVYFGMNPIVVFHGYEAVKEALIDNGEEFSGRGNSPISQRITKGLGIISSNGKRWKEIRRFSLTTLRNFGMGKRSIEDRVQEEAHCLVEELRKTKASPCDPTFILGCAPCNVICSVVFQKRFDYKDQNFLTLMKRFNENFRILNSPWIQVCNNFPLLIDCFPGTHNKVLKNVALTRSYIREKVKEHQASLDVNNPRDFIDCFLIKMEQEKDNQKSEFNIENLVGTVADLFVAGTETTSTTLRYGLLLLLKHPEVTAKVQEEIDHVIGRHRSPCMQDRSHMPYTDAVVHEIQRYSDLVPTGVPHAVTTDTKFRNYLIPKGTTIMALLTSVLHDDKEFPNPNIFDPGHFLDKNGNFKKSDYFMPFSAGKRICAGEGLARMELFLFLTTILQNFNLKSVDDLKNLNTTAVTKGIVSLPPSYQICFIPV
test.name: CYP inhibition in human liver microsomes
run.conditions: read-out: CYP-2C8, metabolite desethylamodiaquine
Entries and their measured IC50 follow.

// below: answered compounds
>  <compound>
Cc1c(NC(=O)c2cc(-c3ccco3)on2)cnn1Cc1ccc(C(F)(F)F)cc1C(F)(F)F

>  <IC50>
> 50 µM

$$$$
>  <compound>
O=C(Nc1cnn(Cc2ccc(C(F)(F)F)cc2C(F)(F)F)c1)c1cc(-c2ncccn2)on1

>  <IC50>
> 50 µM

$$$$

CC(c1ccc(C(F)(F)F)cc1C(F)(F)F)n1cc(NC(=O)c2nnc(-c3cnccn3)s2)cn1 (stereo not drawn) has a reported IC50 of > 50 µM

###

test.name: In vitro microsomal stability, human liver microsomes
Format: in vitro ADME
run.conditions: remaining fraction after 30 min; 1 μM compound, 0.5 mg/mL human liver microsomes, 1 mM NADPH
measurement.label: Rem. @ hLM (%)

Look over these answered cases.
>  <compound>
C[C@H](c1ccc(C(F)(F)F)cc1C(F)(F)F)n1cc(NC(=O)c2nnc(-c3cnccn3)s2)cn1

>  <Rem. @ hLM (%)>
84.4

$$$$
>  <compound>
O=C(Nc1cnn(Cc2ccc(C(F)(F)F)cc2C(F)(F)F)c1)c1cc(-c2cccs2)on1

>  <Rem. @ hLM (%)>
50.1

$$$$
>  <compound>
O=C(Nc1cnn(Cc2ccc(C(F)(F)F)cc2C(F)(F)F)c1)c1cc(-c2ncccn2)on1

>  <Rem. @ hLM (%)>
68.0

$$$$
>  <compound>
Cc1ccc(-c2cc(C(=O)Nc3cnn(Cc4ccc(C(F)(F)F)cc4C(F)(F)F)c3)no2)o1

>  <Rem. @ hLM (%)>
3.7

$$$$
>  <compound>
CCC(c1ccc(C(F)(F)F)cc1C(F)(F)F)n1cc(NC(=O)c2cc(-c3ccccn3)on2)cn1 (stereo not drawn)

>  <Rem. @ hLM (%)>
71.4

$$$$
>  <compound>
Cc1nn([C@H](C)c2ccc(C(F)(F)F)cc2C(F)(F)F)cc1NC(=O)c1cc(-c2ccccn2)on1

>  <Rem. @ hLM (%)>
49.2

$$$$

I. Cc1nn([C@@H](C)c2ccc(C(F)(F)F)cc2C(F)(F)F)cc1NC(=O)c1cc(-c2ccccn2)on1
II. CN(C(=O)c1cc(-c2ccccn2)on1)c1cnn(Cc2ccc(C(F)(F)F)cc2C(F)(F)F)c1
III. C[C@H](c1ccc(C(F)(F)F)cc1C(F)(F)F)n1cc(NC(=O)c2cn(-c3ccccn3)nn2)cn1
List the 3 entries from lowest Rem. @ hLM (%) to highest Rem. @ hLM (%) value. # output: labels, in the requested order
II, I, III

###

measurement.target: CYP2B6 (Homo sapiens (Human), UniProt P20813)
Sequence (P20813 whole entry): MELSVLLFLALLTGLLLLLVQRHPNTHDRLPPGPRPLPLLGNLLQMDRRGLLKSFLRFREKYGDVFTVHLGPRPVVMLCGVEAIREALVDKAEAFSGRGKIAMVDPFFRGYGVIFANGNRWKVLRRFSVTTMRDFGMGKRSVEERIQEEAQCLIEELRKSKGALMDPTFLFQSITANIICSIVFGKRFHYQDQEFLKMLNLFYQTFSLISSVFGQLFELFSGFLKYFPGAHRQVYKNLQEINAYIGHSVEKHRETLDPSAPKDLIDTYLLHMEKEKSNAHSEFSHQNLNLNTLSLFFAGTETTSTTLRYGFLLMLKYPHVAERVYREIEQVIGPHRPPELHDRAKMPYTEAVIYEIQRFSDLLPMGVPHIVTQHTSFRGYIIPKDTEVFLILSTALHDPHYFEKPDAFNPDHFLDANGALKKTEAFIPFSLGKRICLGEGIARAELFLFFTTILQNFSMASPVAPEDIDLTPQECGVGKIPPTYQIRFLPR
test.name: CYP inhibition in human liver microsomes
run.conditions: read-out: CYP-2B6; human liver microsomes; probe substrate bupropion
pIC50: −log10 of the molar value.
Quick reference for pIC50 among some compounds

Please fill in: pIC50 reported for Cc1c(NC(=O)c2cc(-c3ccco3)on2)cnn1Cc1ccc(C(F)(F)F)cc1C(F)(F)F [Compound 93] = < 4.30

// pIC50 value for O=C(Nc1cnn(Cc2ccc(C(F)(F)F)cc2C(F)(F)F)c1)c1cc(-c2ncccn2)on1 [Compound 129] : < 4.30

pIC50 in this record for CC(c1ccc(C(F)(F)F)cc1C(F)(F)F)n1cc(NC(=O)c2nnc(-c3cnccn3)s2)cn1 (stereo not drawn) [Compound 136] : < 4.30
